assay: anti-His antibody binders, primary screen, artefact control for SMM control protein annotation, biochemical, small-molecule microarray, 635 nm fluorescence (AID 1128); settings: anti-His Alexa647 antibody binding, higher = more signal;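 further: score merges feature fluorescence with signal-to-noise for each printed compound spot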
Note to self: values exactly at 1 are Condition met. So composite z-score at or above 1 is Condition met, below is Condition not met.

Examples from the recorded data:
Query string: Reported composite z-score reaches at least 1 for COc1ccc([Si](C)(C)[C@H]2[C@H](CCO)O[C@@]3(C(=O)N(Cc4cccc(NC(=O)[C@H](C)O)c4)c4ccccc43)[C@@H]2C)cc1 ?
Result string: Condition met

Query string: Reported composite z-score reaches at least 1 for COC(=O)[C@H](C)NC(=O)CCC1CC(OC(=O)NCc2ccc3c(c2)OCO3)CC2(CCCC(COC(=O)NCCOc3ccccc3)O2)O1 (stereo partly drawn) ?
Result string: Condition not met

Query string: Reported composite z-score reaches at least 1 for CC(CCN1CCCCc2nc(C)c(C)cc21)=NOC(C)CN1CCCc2nc(C)c(C)cc21 (stereo not drawn) ?
Result string: Condition not met

Query string: Reported composite z-score reaches at least 1 for COC(=O)CC=C[C@@H](C)[C@@H](C=NO[C@@H](C)c1cc(-c2c(C)cc(C)cc2C)no1)OC ?
Result string: Condition not met

Query string: Reported composite z-score reaches at least 1 for C=C(COC)/C(=C/C[C@H](OC(=O)c1ccncc1)c1ccc(CO)o1)c1cc(C(=O)OC)ccc1OC ?
Result string: Condition met

Query string: Reported composite z-score reaches at least 1 for CCc1cc2c(nc1CC)CCN(CCC(C)=NOC[C@@H](O)COCc1ccco1)C2 ?
Result string: Condition met

Kindly consider the entry below.
Query string: Reported composite z-score reaches at least 1 for COCCCNC(=O)[C@]1(CCC(=O)OC(C)(C)C)N=C(c2ccc(OCCCO)cc2)O[C@@H]1c1ccccc1N=[N+]=[N-] ?
Result string: Condition met
